Target: Cyclin-dependent kinases regulatory subunit 1/S-phase kinase-associated protein 2 (Homo sapiens, UniProt P61024+Q13309)
Sequence (P61024 2-79 limits assumed): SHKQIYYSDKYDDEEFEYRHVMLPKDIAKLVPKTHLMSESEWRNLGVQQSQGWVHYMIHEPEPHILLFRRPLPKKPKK
Sequence (Q13309 whole entry partner): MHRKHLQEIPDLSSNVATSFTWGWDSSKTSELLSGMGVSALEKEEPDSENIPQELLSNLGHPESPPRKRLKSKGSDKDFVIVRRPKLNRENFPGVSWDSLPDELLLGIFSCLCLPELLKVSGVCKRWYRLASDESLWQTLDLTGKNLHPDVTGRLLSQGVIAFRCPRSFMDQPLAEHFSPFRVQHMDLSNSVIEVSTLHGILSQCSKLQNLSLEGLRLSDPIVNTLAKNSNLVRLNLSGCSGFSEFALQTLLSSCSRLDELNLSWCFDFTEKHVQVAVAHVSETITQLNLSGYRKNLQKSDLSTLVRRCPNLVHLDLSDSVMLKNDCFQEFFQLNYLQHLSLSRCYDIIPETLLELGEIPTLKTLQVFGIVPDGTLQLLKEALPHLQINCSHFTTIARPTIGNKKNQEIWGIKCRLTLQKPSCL
Test: Inhibition of Cks1-Skp2 (unknown origin) interaction assessed as increase in p27-GFP level by ELISA
Format: protein assay
Active and inactive are the calls of the source. The rule behind the calls is not given here.

| SMILES_INPUT | Activity |
| --- | --- |
| COc1ccc(S(=O)(=O)Nc2ccc(-c3ccncc3)c3cccnc23)cc1 | Active |
| Cc1ccc(S(=O)(=O)Nc2ccc(Br)c3cccnc23)cc1 | Active |

###

Biological target: Cyclin-dependent kinases regulatory subunit 1/S-phase kinase-associated protein 2 (Homo sapiens, UniProt P61024+Q13309)
Assay: Inhibition of Cks1-Skp2 (unknown origin) interaction assessed as increase in p27-GFP level by western blot analysis
Type: protein assay
Activity calls are given as the source filed them. The calls are words filed in the database; no cut-off is given here.
Outcomes: t for active, f for inactive

| SMILES_INPUT | CLASS |
| --- | --- |
| O=S(=O)(Nc1ccc(-c2cccnc2)c2cccnc12)C1CC1 | f |
| COc1ccc(S(=O)(=O)Nc2ccc(-c3ccncc3)c3cccnc23)cc1 | t |
| CS(=O)(=O)Nc1ccc(-c2cccnc2)c2cccnc12 | f |
| O=S(=O)(Nc1ccc(-c2ccccc2)c2cccnc12)c1cccnc1 | t |
| Cc1ccc(S(=O)(=O)Nc2ccc(-c3ccco3)c3cccnc23)cc1 | t |
| Cc1ccc(S(=O)(=O)Nc2ccc(Br)c3cccnc23)cc1 | t |
